Test system: 843126-344-R-J1-PDC complex spheroid viability
Experiment: Anticancer human tumor 843126-344-R-J1-PDC patient-derived melanoma cell line growth inhibition [POLQ]
Conditions: second compound 3.16 µM; first compound 3.16 µM; active compounds read low

COMPOUND	viability, T/C / %
CC1COCCN1c1cc(-c2ccnn2C)c2ccnc(-c3ccn[nH]3)c2n1 (stereo not drawn) + Cc1cccc(N(C)C(=O)C2C(O)CCN2c2nc(C)cc(C(F)(F)F)c2C#N)c1	44.8
COc1ccc([C@@H](O)c2cc(-c3ncnc4cc(N5CCOCC5)ccc34)c(F)cc2Cl)nn1 + Nc1ccc(C#CCN(C(=O)Cc2ncc(C(F)(F)F)cc2C(F)(F)F)c2ccc(F)cc2)nn1	77.8
COc1cc2cc(C(=O)CCC(=O)O)sc2cc1OC + Cc1cccc(N(C)C(=O)C2C(O)CCN2c2nc(C)cc(C(F)(F)F)c2C#N)c1	96.3

====

System: 843126-344-R-J1-PDC complex spheroid viability
Experiment: Anticancer human tumor 843126-344-R-J1-PDC cell line growth inhibition [POLQ];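 further: spheroids exposed to drugs for seven days before readout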
Conditions: second compound 0.0316 µM; first compound 0.1 µM; active compounds read low

COMPOUND	U	viability, T/C
CC1COCCN1c1cc(C2(S(C)(=N)=O)CC2)nc(-c2ccnc3[nH]ccc23)n1 (stereo not drawn) + Cc1cccc(N(C)C(=O)C2C(O)CCN2c2nc(C)cc(C(F)(F)F)c2C#N)c1	%	80.2
Nc1ccn(C2OC(CO)C(O)C2(F)F)c(=O)n1 (stereo not drawn) + Nc1ccc(C#CCN(C(=O)Cc2ncc(C(F)(F)F)cc2C(F)(F)F)c2ccc(F)cc2)nn1	%	35.5
CCc1cc2c(N3CCc4c(cc(Cn5ccnc5)cc4-c4cn(C)nc4C(F)(F)F)C3=O)ccnc2c(OC)n1 + COC1C(OC(N)=O)C(O)C(Oc2ccc3c(O)c(NC(=O)c4ccc(O)c(CC=C(C)C)c4)c(=O)oc3c2C)OC1(C)C	%	88.3

====

Test system: 843126-344-R-J1-PDC complex spheroid viability
Experiment: Anticancer human tumor 843126-344-R-J1-PDC cell line growth inhibition [POLQ];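 further: spheroids exposed to drugs for seven days before readout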
Settings: second compound 1 µM; first compound 0.00316 µM; active compounds read low
Procedure: Multicellular complex tumor spheroid response to Polymerase (POL) inhibitors (novobiocin, ART-558, RP6685) in combination with a variety of drugs and investigational agents in selected tumor cell lines The POL inhibitors (novobiocin, ART-558, and RP6685) were evaluated both individually and in combination with standard of care and investigational anticancer small molecules within a complex spheroid model of solid tumors. . […]
Lab note: anything with viability, T/C below 90% is marked Fulfilled; values at 90% or higher are marked Not fulfilled.

MOLECULE	ASSIGNED_LABEL
COc1cccc(OCCCN)c1-c1cc(Nc2cnc(C#N)cn2)n[nH]1 + Cc1cccc(N(C)C(=O)C2C(O)CCN2c2nc(C)cc(C(F)(F)F)c2C#N)c1	Not fulfilled
CC[C@@]1(O)C(=O)OCc2c1cc1n(c2=O)Cc2cc3c(CN(C)C)c(O)ccc3nc2-1 + COC1C(OC(N)=O)C(O)C(Oc2ccc3c(O)c(NC(=O)c4ccc(O)c(CC=C(C)C)c4)c(=O)oc3c2C)OC1(C)C	Not fulfilled
C=CCn1c(=O)c2cnc(Nc3ccc(N4CCN(C)CC4)cc3)nc2n1-c1cccc(C(C)(C)O)n1 + Cc1cccc(N(C)C(=O)C2C(O)CCN2c2nc(C)cc(C(F)(F)F)c2C#N)c1	Fulfilled
CCc1c2c(nc3ccc(O)cc13)-c1cc3c(c(=O)n1C2)COC(=O)[C@]3(O)CC + COC1C(OC(N)=O)C(O)C(Oc2ccc3c(O)c(NC(=O)c4ccc(O)c(CC=C(C)C)c4)c(=O)oc3c2C)OC1(C)C	Fulfilled
CC[C@@]1(O)C(=O)OCc2c1cc1n(c2=O)Cc2cc3c(CN(C)C)c(O)ccc3nc2-1 + Nc1ccc(C#CCN(C(=O)Cc2ncc(C(F)(F)F)cc2C(F)(F)F)c2ccc(F)cc2)nn1	Not fulfilled
CCc1c2c(nc3ccc(O)cc13)-c1cc3c(c(=O)n1C2)COC(=O)[C@]3(O)CC + Cc1cccc(N(C)C(=O)C2C(O)CCN2c2nc(C)cc(C(F)(F)F)c2C#N)c1	Fulfilled
CCc1c2c(nc3ccc(O)cc13)-c1cc3c(c(=O)n1C2)COC(=O)[C@]3(O)CC + Nc1ccc(C#CCN(C(=O)Cc2ncc(C(F)(F)F)cc2C(F)(F)F)c2ccc(F)cc2)nn1	Fulfilled
